Values compiled from the antibiotic and cytotoxicity screens of Wong et al. (2023).

tested on: HSkMC (human skeletal muscle cells); test: cytotoxicity call (relative viability < 0.9); conditions: 10 µM
About 1,500 (3.8%) of roughly 39,000 compounds were called active. The list comes from a sample in which actives are over-represented; it also holds close analogues and randomly drawn compounds.
parameter_measured: cytotoxicity call

compound_structure=C[C@H](CO)N1C[C@H](C)[C@@H](CN(C)S(=O)(=O)c2cn(C)cn2)Oc2ccc(NS(=O)(=O)c3ccc(Cl)cc3)cc2CC1=O reading=inactive
compound_structure=C[C@@H]1CCCCO[C@@H](CN(C)C(=O)c2ccccc2)[C@@H](C)CN([C@H](C)CO)C(=O)c2cc(NC(=O)Cc3ccccc3)ccc2O1 reading=inactive
compound_structure=Cc1cc(C(=O)Nc2cccc3c2O[C@@H](CN(C)S(C)(=O)=O)[C@@H](C)CN([C@@H](C)CO)C3=O)n(C)n1 reading=inactive
